Catalogue of normalized growth values
Assay: chemical genetic growth profiling, strain panel (AID 1159580);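 further: tested at 20 µM; growth read once vehicle control cultures reached saturation at 30 °C; 1 = growth at the plate median or of vehicle wells; lower values mean less growth of the strain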
Conditions: S. cerevisiae deletion strains, growth OD, locus YJL095W, strain BCK1 (second series), active compounds read low
Hit rate of the full screen: of about 5,500 compounds, about 2,000 (36%) were called active. About 18% were inconclusive and are not listed. Some of the results follow.

Note down normalized growth recorded for `CC(=O)NCCCS(=O)(=O)O` 1.01 (inactive)

Note down normalized growth recorded for Cc1c(O)c(O)cc2c1CC=C1[C@@]2(C)CC[C@@]2(C)C3C[C@](C)(C(=O)O)CC[C@]3(C)CC[C@]12C (stereo partly specified) 0.405 (active)

Note down normalized growth recorded for `CC(C)=CCC/C(C)=C/CC/C(C)=C/CC/C(C)=C/CC/C(C)=C/CC/C(C)=C/CC/C(C)=C/CC/C(C)=C/CC/C(C)=C/CO` 0.992 (inactive)

Note down normalized growth recorded for `O=C(O)c1ccccc1Nc1cccc(C(F)(F)F)c1` 0.848 (active)

Note down normalized growth recorded for C=C(C)C1CC=C(CO)CC1 (stereo unspecified) 0.97 (inactive)

Further cases:
Note down normalized growth recorded for `CN/C(=C\[N+](=O)[O-])NCCSCc1ccc(CN(C)C)o1` 0.995 (inactive)

Note down normalized growth recorded for `Cc1ccsc1/C=C/C1=NCCCN1C` 0.991 (inactive)

Note down normalized growth recorded for O=C(OC1Cc2c(O)cc(O)cc2OC1c1cc(O)c(O)c(O)c1-c1c(C2Oc3cc(O)cc(O)c3CC2OC(=O)c2cc(O)c(O)c(O)c2)cc(O)c(O)c1O)c1cc(O)c(O)c(O)c1 (stereo unspecified) 0.987 (inactive)

Note down normalized growth recorded for O=C1C=CC2=C3c4cc(O)c(O)cc4CC3(O)COC2=C1O (stereo unspecified) 1.01 (inactive)

Note down normalized growth recorded for CC(=O)O[C@@H]1C[C@@]2(C)[C@H](c3ccoc3)C[C@H]3O[C@]32[C@]2(C)C(=O)C(O)=C3C(C)(C)C(=O)C=C[C@]3(C)C12 (stereo partly specified) 0.967 (inactive)

Note down normalized growth recorded for `CCN(CC)CCNC(=O)c1cc(S(C)(=O)=O)ccc1OC` 0.972 (inactive)

Note down normalized growth recorded for CC(=O)O[C@H]1C[C@@H](OC(C)=O)C(C)(C)C2C[C@@H](OC(C)=O)[C@@]3(C)C4=CC(=O)O[C@@H](c5ccoc5)[C@]4(C)CCC3[C@]21C (stereo partly specified) 1 (inactive)

Note down normalized growth recorded for CCCC1O[C@@H]2CC3C4CCC5=CC(=O)C=CC5(C)C4[C@@H](O)CC3(C)[C@]2(C(=O)CO)O1 (stereo partly specified) 1.01 (inactive)

Note down normalized growth recorded for `CCOP(=S)(OCC)SCn1c(=O)oc2cc(Cl)ccc21` 0.941 (inactive)

Note down normalized growth recorded for `O[N+]1=CC=CCC1=S.On1ccccc1=S.[Zn]` 0.0629 (active)

Note down normalized growth recorded for `O=C(O)c1ccccc1Nc1ccccc1` 0.938 (inactive)

Note down normalized growth recorded for `COc1cc2c(c(OC)c1OC)-c1ccc(OC)c(=O)cc1[C@@H](NC(C)=O)CC2` 1 (inactive)

Note down normalized growth recorded for `COC(C)(C)CCC[C@H](C)C/C=C/C(C)=C/C(=O)OC(C)C` 1.02 (inactive)

Note down normalized growth recorded for `C=C(C)[C@H]1CC=C(C(=O)O)CC1` 0.985 (inactive)

Note down normalized growth recorded for `O=C(O)C1=CCNCC1` 1.02 (inactive)

Note down normalized growth recorded for O=C1O[C@H](C(O)CO)C(O)=C1O (stereo partly specified) 0.991 (inactive)

Data provenance is PubChem BioAssay AID1159580.
